Tested on: Escherichia coli TOP10
Assay: shrunken log2 fold change of peptide-encoding DNA abundance (4.5 h post-induction vs induction); higher = less antimicrobial activity (less host growth inhibition)
Settings: time post-induction: 4.5 h; library: site-saturation at positions 5, 18, 19, 20
Measured Property: shrunken log2 fold change
Reply briefly: the number, and no unit.

Q) Test system Escherichia coli TOP10; read-out shrunken log2 fold change; what value for RRIRARPPRLPRPRPRPEPHPRP ?;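 note: peptides expressed intracellularly from a pBAD plasmid library in pooled LB shake-flask culture, induced with 0.3% L-arabinose, DNA abundance read by NGS, three biological replicates, DESeq2 with apeglm shrinkage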
A) 0.374

Q) Could you do the same for RRIRMRPPRLPRPRPRPVLNPRP , please?
A) -0.232

Q) Next record, please: RRIRFRPPRLPRPRPRPMFYPRP
A) -1.51

Q) And for RRIRFRPPRLPRPRPRPPLEPRP ?
A) 0.288

Q) Param item: RRIRTRPPRLPRPRPRPRGRPRP
A) 0.593

Q) Input RRIRDRPPRLPRPRPRPVQWPRP
A) 0.0426

Q) Input RRIRFRPPRLPRPRPRPLFCPRP
A) -0.462

Q) RRIRIRPPRLPRPRPRPGFSPRP , same question.
A) -0.0749

Data origin, for the record: the supplement of paper PMC9112550
